# Substrate: alpha-Naphthyl caprylate
# conditionInfo: pH 5; 37 °C
Field: Km. Provide a value for each of the proteins that follow.

IN: Read the entry unnamed (protein) MKQFSAKHALAVVVTAGHALAASTQGISEDLYTRLVEMATISQAAYADLCNIPSTIIKGEKIYNSQTDINGWILRDDSSKEIITVFRGTGSITNLQLDTNYTLTPFDTLPQCNGCEVHGGYYIGWVSVQDQVESLVKQQVSQYPDYALTVTGHSLGASLAALTAAQLSATYDNIRLYTFGEPRSGNQAFASYMNDAFQASSPDTTQYFRVTHANDGIPNLPPVEQGYAHGGVEYWSVDPYSAQNTFVCTGDEVQCCEAQGGQGVNNAHTTYFGMTSGACTW and write its reported Km.
OUT: 50 µM

IN: Read the entry unnamed (protein) MKQFSAKHALAVVVTAGHALAASTQGISEDLYTRLVEMATISQAAYADLCNIPSTIIKGEKIYNSQTDINGWILRDDSSKEIITVFRGTGSDTNLQLDTNYTLTPFDTLPQCNGCEVHGGYYIGWVSVQDQVESLVKQQVSQYPDYALTVTGHSLGASLAALTAAQLSATYDNIRLYTFGEPRSGNQAFASYMNDAFQASSPDTTQYFRVTHANDGIPNLPPVEQGYAHGGVEYWSVDPYSAQNTFVCTGDEVQCCEAQGGQGVNNAHTTYFGMTSGACTW and write its reported Km.
OUT: 79 µM

IN: Read the entry unnamed (protein) MKQFSAKHALAVVVTAGHALAASTQGISEDLYTRLVEMATISQAAYADLCNIPSTIIKGEKIYNSQTDINGWILRDDSSKEIITVFRGTGSDRNLQLDTNYTLTPFDTLPQCNGCEVHGGYYIGWVSVQDQVESLVKQQVSQYPDYALTVTGHSLGASLAALTAAQLSATYDNIRLYTFGEPRSGNQAFASYMNDAFQASSPDTTQYFRVTHANDGIPNLPPVEQGYAHGGVEYWSVDPYSAQNTFVCTGDEVQCCEAQGGQGVNNAHTTYFGMTSGACTW and write its reported Km.
OUT: 17 µM
